Attribution: patent US20150329515A1

system: Tamiflu-resistant 2009 pandemic influenza A (H1N1) virus (H275Y mutation in neuraminidase); experiment: in vitro; conditions: dog, SI (selective index = CC50/EC50), H1N1 Tamiflu-resistant
Parameter: selectivity ratio

Prompt: Provide only the value of recorded selectivity ratio for COc1cc2oc(-c3ccc(Br)cc3)cc(=O)c2c(OC)c1OC [Compound 2m]
Response: 0.7

Prompt: Recall and state the measured selectivity ratio for COc1cc2oc(-c3cccc(Br)c3)cc(=O)c2c(OC)c1OC [Compound 2l] .
Response: > 8

Prompt: Give a short answer stating reported selectivity ratio for O=C(O)[C@H]1O[C@@H](Oc2cc3oc(-c4ccccc4)cc(=O)c3c(O)c2O)[C@H](O)[C@@H](O)[C@@H]1O [Baicalin, reference compound] .
Response: > 4.3

Prompt: Hello, please tell me recorded selectivity ratio for this one: O=c1cc(-c2cccc(Br)c2)oc2cc(O)c(O)c(O)c12 [Compound 6b]
Response: > 66.7

Prompt: Tell me measured selectivity ratio for NC(=O)c1ncn([C@@H]2O[C@H](CO)[C@@H](O)[C@H]2O)n1 [Ribavirin, reference compound] please.
Response: > 11.7

Prompt: Give the measured selectivity ratio for O=c1cc(-c2ccccc2Br)oc2cc(O)c(O)c(O)c12 [Compound 6a]
Response: > 33.3

====

Parameter: CC50

Prompt: Report its CC50 with Madin-Darby canine kidney (MDCK) cells as the test system: `O=c1cc(-c2ccc(-c3ccccc3)cc2)oc2cc(O)c(O)c(O)c12`
Response: > 300 µM

Prompt: Return reported CC50 for target or system Madin-Darby canine kidney (MDCK) cells, item `O=c1cc(-c2ccc([N+](=O)[O-])cc2)oc2cc(O)c(O)c(O)c12` .
Response: > 300 µM

Prompt: Under Madin-Darby canine kidney (MDCK) cells, report CC50 for `O=c1cc(-c2ccc(Cl)cc2)oc2cc(O)c(O)c(O)c12`
Response: > 300 µM

Prompt: Give measured CC50 for `O=C(O)c1ccc(-c2cc(=O)c3c(O)c(O)c(O)cc3o2)cc1` (Madin-Darby canine kidney (MDCK) cells).
Response: > 300 µM

Prompt: // fetch CC50; item: `O=c1cc(-c2ccc(F)c(Br)c2)oc2cc(O)c(O)c(O)c12` ; system: Madin-Darby canine kidney (MDCK) cells
Response: > 300 µM

Prompt: Write down measured CC50 (Madin-Darby canine kidney (MDCK) cells) for this compound. `O=c1cc(-c2cccc(Cl)c2)oc2cc(O)c(O)c(O)c12`
Response: > 300 µM

Prompt: Look up and report CC50, with Madin-Darby canine kidney (MDCK) cells as system, for `O=c1cc(-c2ccccc2Cl)oc2cc(O)c(O)c(O)c12`
Response: > 300 µM

Prompt: Report CC50 from Madin-Darby canine kidney (MDCK) cells testing of `O=c1cc(-c2ccccc2)oc2cc(O)c(O)c(O)c12`
Response: > 300 µM

Prompt: State, for Madin-Darby canine kidney (MDCK) cells, measured CC50 of the compound listed here: `O=c1cc(-c2ccc(Cl)cc2Cl)oc2cc(O)c(O)c(O)c12`
Response: > 300 µM

====

test system: Tamiflu-resistant 2009 pandemic influenza A (H1N1) virus (H275Y mutation in neuraminidase)
Please go through the items and note down their SI (selective index = CC50/EC50), H1N1 Tamiflu-resistant virus.

Prompt: Supply recorded SI (selective index = CC50/EC50), H1N1 Tamiflu-resistant virus for O=c1cc(-c2ccc(-c3ccccc3)cc2)oc2cc(O)c(O)c(O)c12 [Compound 3i] here.
Response: >4.2

Prompt: Look up SI (selective index = CC50/EC50), H1N1 Tamiflu-resistant virus of O=c1cc(-c2ccc(F)c(Br)c2)oc2cc(O)c(O)c(O)c12 [Compound 3g] and report it.
Response: >1.5

Prompt: Give reported SI (selective index = CC50/EC50), H1N1 Tamiflu-resistant virus value for O=c1cc(-c2cccc(Cl)c2)oc2cc(O)c(O)c(O)c12 [Compound 3c]
Response: >6.0

Prompt: Name the recorded SI (selective index = CC50/EC50), H1N1 Tamiflu-resistant virus of the item O=c1cc(-c2ccc(Cl)cc2Cl)oc2cc(O)c(O)c(O)c12 [Compound 3e] in your answer.
Response: >4.1

Prompt: Identify measured SI (selective index = CC50/EC50), H1N1 Tamiflu-resistant virus associated with O=c1cc(-c2ccc([N+](=O)[O-])cc2)oc2cc(O)c(O)c(O)c12 [Compound 3j]
Response: >16.6

Prompt: Return SI (selective index = CC50/EC50), H1N1 Tamiflu-resistant virus (reported value) for this molecule: O=C(O)c1ccc(-c2cc(=O)c3c(O)c(O)c(O)cc3o2)cc1 [Compound 3h]
Response: >7.6
